system_name: hNET (Homo sapiens, UniProt P23975)
Sequence (P23975 whole entry): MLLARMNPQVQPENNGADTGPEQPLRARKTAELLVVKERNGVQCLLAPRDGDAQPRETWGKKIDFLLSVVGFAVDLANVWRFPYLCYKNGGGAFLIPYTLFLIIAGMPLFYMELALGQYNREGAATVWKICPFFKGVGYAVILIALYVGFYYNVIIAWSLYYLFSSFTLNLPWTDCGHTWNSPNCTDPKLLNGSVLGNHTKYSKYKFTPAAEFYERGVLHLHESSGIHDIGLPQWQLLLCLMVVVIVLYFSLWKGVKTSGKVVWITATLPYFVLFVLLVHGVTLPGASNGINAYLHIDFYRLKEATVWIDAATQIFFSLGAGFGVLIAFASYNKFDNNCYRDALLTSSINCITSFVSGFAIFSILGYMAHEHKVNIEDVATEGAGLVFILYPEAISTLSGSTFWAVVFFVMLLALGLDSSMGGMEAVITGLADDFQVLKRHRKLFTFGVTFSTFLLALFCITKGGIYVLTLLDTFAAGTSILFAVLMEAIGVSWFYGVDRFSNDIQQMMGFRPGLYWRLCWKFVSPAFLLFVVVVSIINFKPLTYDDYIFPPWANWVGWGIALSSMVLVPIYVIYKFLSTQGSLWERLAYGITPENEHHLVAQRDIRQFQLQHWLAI
protocol_summary: biochemical
Format: binding
measured_attribute: pKi
One number for each entry, as −log10 of the molar value.

Examples from the recorded data:
CN[C@@H](C)Cc1ccccc1 [METH, (+)methamphetamine, reference compound]    5.86
CNC(C)C(=O)c1ccc2c(c1)OCO2 (stereo not shown)    4.78
OC1(c2ccc(Cl)cc2)c2ccccc2C2=NCCN21 (stereo not shown) [Mazindol, reference compound]    8.27

Field: next molecule
Enquiry: Provide one value: measured pKi of CNC(C)C(=O)c1ccc(C)cc1 (stereo not shown)
Return: 4.93

----------
Task for the reader: assign each of the following molecules its reported IC50.
system_name: hSERT (Homo sapiens)
Sequence (P31645 whole entry): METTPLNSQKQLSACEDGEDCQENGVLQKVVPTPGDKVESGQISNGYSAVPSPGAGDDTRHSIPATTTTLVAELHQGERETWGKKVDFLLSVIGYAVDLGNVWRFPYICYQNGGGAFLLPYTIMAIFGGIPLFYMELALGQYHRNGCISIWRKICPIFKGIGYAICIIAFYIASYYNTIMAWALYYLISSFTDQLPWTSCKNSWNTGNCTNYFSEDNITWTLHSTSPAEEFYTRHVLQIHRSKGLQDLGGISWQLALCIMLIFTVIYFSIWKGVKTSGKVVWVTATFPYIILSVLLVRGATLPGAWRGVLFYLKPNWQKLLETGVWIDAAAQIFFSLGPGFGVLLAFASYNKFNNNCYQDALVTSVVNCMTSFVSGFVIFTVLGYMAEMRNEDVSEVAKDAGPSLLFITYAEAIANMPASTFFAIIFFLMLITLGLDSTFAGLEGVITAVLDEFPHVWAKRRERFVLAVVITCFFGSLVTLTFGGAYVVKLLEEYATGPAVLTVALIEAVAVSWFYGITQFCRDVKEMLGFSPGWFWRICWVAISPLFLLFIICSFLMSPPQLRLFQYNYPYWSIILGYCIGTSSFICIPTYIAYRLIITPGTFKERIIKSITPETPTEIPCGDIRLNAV
protocol_summary: Inhibition of [3H]5-HT uptake, intact HEK-hSERT cells
Format: cell-based
measurement_conditions: read-out: Inhibition of [3H]neurotransmitter uptake IC50 ± sem, hSERT [3H]5-HT; 20 nM [3H]5-HT, intact cells
Numbers only, in nM.

CNC(C)Cc1ccc2c(c1)OCO2 (stereo not drawn) [MDMA, 3,4-methylenedioxymethylamphetamine, reference compound]    109
CCC(NC)C(=O)c1ccc2c(c1)OCO2 (stereo not drawn) [Butylone]    1970
CCCC(C(=O)c1ccc2ccccc2c1)N1CCCC1 (stereo not drawn) [Naphyrone, naphthylpyrovalerone]    59.3

Hi team, please reply with IC50 for each item in this list.
1. CNC(C)C(=O)c1ccccc1 (stereo not drawn) [Methcathinone, methcathinone, reference compound]
2. CCCC(C(=O)c1ccc2c(c1)OCO2)N1CCCC1 (stereo not drawn) [MDPV, 3,4-methylenedioxypyrovalerone]

Return:
[13500, 1380]
